# System: RAW-Dual
# procedure-summary: NF-kB SEAP reporter activity, fold change vs agonist alone; cytotoxicity flag (confluency mask): not cytotoxic; higher = enhanced NF-kB activity
# test-conditions: agonist: ODN 1826 (TLR9) 0.5 ug/mL
Over roughly 2,900 compounds, “NF-kB SEAP reporter activity, fold change vs agonist alone” has its median near 0.99; the highest 2% begin near 2.6. The full list was thinned out, with the highest values kept by preference.
Parameter threshold = 1. Response is Y when NF-kB SEAP reporter activity meets or exceeds it, else N.

Q: Item Nc1cc(F)ccc1NC(=O)/C=C/c1cnn(C/C=C/c2ccccc2)c1 (library stock concentration (final ~1000-fold dilution): 10 mM) with NF-kB SEAP reporter activity of 1 or above?
Ans: Y

Q: Is NF-kB SEAP reporter activity for Cl.N=C(N)NCCCCC(N)C(=O)O (stereo unspecified) (library stock concentration (final ~1000-fold dilution): 10 mM water) at or above 1?
Ans: Y

Q: Would you say COc1ccccc1-c1cc(Nc2cccc(CS(N)(=O)=O)c2)ncn1 (library stock concentration (final ~1000-fold dilution): 10 mM) shows NF-kB SEAP reporter activity at minimum 1?
Ans: Y

Q: Is the recorded value of NF-kB SEAP reporter activity equal to or greater than 1 for this compound? C=CC1(C)CC(OC(=O)CSCCN(CC)CC)C2(C)C(C)CCC3(CCC(=O)C32)C(C)C1O (stereo unspecified) (library stock concentration (final ~1000-fold dilution): 10 mM)
Ans: N

Q: I'd appreciate it if you could say whether CC(C)CC(NC(=O)CNC(=O)c1cc(Cl)ccc1Cl)B1OC(=O)CC(CC(=O)O)(C(=O)O)O1 (stereo unspecified) (library stock concentration (final ~1000-fold dilution): 10 mM) has NF-kB SEAP reporter activity at least equal to 1.
Ans: N

Q: Threshold query (NF-kB SEAP reporter activity >= 1) on CC(=O)Oc1cc2c(s1)CCN(C(C(=O)C1CC1)c1ccccc1F)C2.Cl (stereo unspecified) (library stock concentration (final ~1000-fold dilution): 10 mM)
Ans: N

Q: Hi, just wondering whether c1ccc(C(c2ccccc2)N2CCN(Cc3ccc4c(c3)OCO4)CC2)cc1 (library stock concentration (final ~1000-fold dilution): 10 mM) shows NF-kB SEAP reporter activity of 1 or higher.
Ans: N

Q: State whether the measured NF-kB SEAP reporter activity reaches 1, counting equality as reaching it, for COc1ccc2c(OC3CC4C(=O)NC5(C(=O)NS(=O)(=O)C6CC6)CC5/C=C\CCCCN(C)C(=O)C4C3)cc(-c3nc(C(C)C)cs3)nc2c1C (stereo unspecified) (library stock concentration (final ~1000-fold dilution): 10 mM)
Ans: N

Q: Check this compound for NF-kB SEAP reporter activity at or above 1: COc1cc2ncnc(Nc3ccc(F)c(Cl)c3)c2cc1OCCCN1CCOCC1.Cl (library stock concentration (final ~1000-fold dilution): 10 mM)
Ans: N

Q: Hello, I need to know if O=C(O)CCCN1CCC(OC(c2ccc(Cl)cc2)c2ccccn2)CC1.O=S(=O)(O)c1ccccc1 (stereo unspecified) (library stock concentration (final ~1000-fold dilution): 10 mM) has measured NF-kB SEAP reporter activity not below 1. Thanks!
Ans: Y

Q: Hi team, for CCCCCCCCCCCCCCCC(=O)OC1C(SC)OC(C(NC(=O)C2CC(CCC)CN2C)C(C)Cl)C(O)C1O.Cl (stereo unspecified) (library stock concentration (final ~1000-fold dilution): 10 mM) , is the recorded NF-kB SEAP reporter activity at or above 1?
Ans: Y

Q: Hi, just wondering whether COc1cc(C2CC(c3ccccc3)=NN2C(N)=S)cc(OC)c1OC (stereo unspecified) (library stock concentration (final ~1000-fold dilution): 10 mM) shows NF-kB SEAP reporter activity of 1 or higher.
Ans: Y

Q: Does the compound NC(=O)c1cccc(-c2cc(Nc3ccc(OC(F)(F)F)cc3)ncn2)c1 (library stock concentration (final ~1000-fold dilution): 10 mM) have recorded NF-kB SEAP reporter activity that is 1 or more?
Ans: N

Q: Form field: NF-kB SEAP reporter activity at least 1? Entry: CN(C)CCOC(c1ccccc1)c1ccccc1.Cl (library stock concentration (final ~1000-fold dilution): 10 mM)
Ans: N

Q: Hi, just wondering whether CCC1OC(=O)C(C)C(OC2CC(C)(OC)C(O)C(C)O2)C(C)C(OC2OC(C)CC(N(C)C)C2O)C(C)(O)CC(C)CN(C)C(C)C(O)C1(C)O.O.O (stereo unspecified) (library stock concentration (final ~1000-fold dilution): 10 mM) shows NF-kB SEAP reporter activity of 1 or higher.
Ans: N

Q: API: above_or_equal(metric=NF-kB SEAP reporter activity, cutoff=1) for item O=C(O)CSc1cc(NS(=O)(=O)c2ccc(Br)cc2)c2ccccc2c1O (library stock concentration (final ~1000-fold dilution): 10 mM)
Ans: Y

Q: Test whether the compound O=c1cc(N2CCOCC2)oc2c(-c3ccc4c(c3)OCCO4)csc12 (library stock concentration (final ~1000-fold dilution): 10 mM) records NF-kB SEAP reporter activity of 1 or higher.
Ans: Y

---

# Tested on: RAW-Dual
# procedure-summary: NF-kB SEAP reporter activity, fold change vs agonist alone; higher = enhanced NF-kB activity
# test-conditions: library stock concentration (final ~1000-fold dilution): 10 mM; cytotoxicity flag (confluency mask): not cytotoxic; agonist: Imiquimod (TLR7) […]
Whole data set: some 2,900 compounds, median “NF-kB SEAP reporter activity, fold change vs agonist alone” near 0.99, cut for the highest 2% near 2.6. Shown is part of a subset that was picked to be rich in the highest values.
Note to self: values exactly at 2 are met. So NF-kB SEAP reporter activity at or above 2 is met, below is not met.

Q: Determine whether measured NF-kB SEAP reporter activity meets or exceeds 2 for CC(C)c1nc(N(C)S(C)(=O)=O)nc(-c2ccc(F)cc2)c1C=CC(O)CC(O)CC(=O)O (stereo not given)
Ans: not met

Q: # bool: NF-kB SEAP reporter activity of CC(C)n1c(C=CC(O)CC(O)CC(=O)O)c(-c2ccc(F)cc2)c2ccccc21 (stereo not given) >= 2
Ans: met

Q: Check if NF-kB SEAP reporter activity >= 2 (inclusive). Item: CC(C)CC(NC(=O)C(NC(=O)c1cccc(-c2ccccc2)n1)C(C)O)B(O)O (stereo not given)
Ans: met

Q: API: above_or_equal(metric=NF-kB SEAP reporter activity, cutoff=2) for item COc1ccc(Oc2cc(NCCC(F)(F)F)c3ncc(-c4ccc(C(=O)NC5CC5)c(C)c4)n3n2)c(F)c1F
Ans: not met

Q: hey, is NF-kB SEAP reporter activity for this one >= 2? C=C(C)C1CCC2(C(=O)O)CCC3(C)C(CCC4C5(C)CCC(O)C(C)(C)C5CCC43C)C12 (stereo not given)
Ans: not met

---

# Test system: RAW-Dual
# procedure-summary: NF-kB SEAP reporter activity, fold change vs agonist alone; cytotoxicity flag (confluency mask): not cytotoxic; higher = enhanced NF-kB activity
# test-conditions: agonist: ODN 1826 (TLR9) 0.5 ug/mL
Over roughly 2,900 compounds, “NF-kB SEAP reporter activity, fold change vs agonist alone” has its median near 0.99; the highest 2% begin near 2.6. The list comes from a sample in which the highest values are over-represented; it also holds close analogues and randomly drawn compounds.
measured-parameter: NF-kB SEAP reporter activity
Reply with the value as a number alone.

Q: Recorded NF-kB SEAP reporter activity for COc1ccc(-c2oc3c(CC=C(C)C)c(OC4OC(CO)C(O)C(O)C4O)cc(O)c3c(=O)c2OC2OC(C)C(O)C(O)C2O)cc1 (centres undefined) (library stock concentration (final ~1000-fold dilution): 10 mM) , please?
Ans: 0.992

Q: Given the entry CC(O)C1C(=O)N2C(C(=O)O)=C(SCCNC=N)CC12.O (centres undefined) (library stock concentration (final ~1000-fold dilution): 10 mM water) , report its measured NF-kB SEAP reporter activity.
Ans: 1.16

Q: Reported NF-kB SEAP reporter activity for O.O=c1c(O)c(-c2ccc(O)cc2O)oc2cc(O)cc(O)c12 (library stock concentration (final ~1000-fold dilution): 10 mM) : what is it?
Ans: 1.13

Q: Name the recorded NF-kB SEAP reporter activity for CN(C/C=C/C#CC(C)(C)C)Cc1cccc2ccccc12 (library stock concentration (final ~1000-fold dilution): 10 mM) .
Ans: 0.849

Q: Reported NF-kB SEAP reporter activity for CCNC(=O)Nc1ccc(-c2nc3c(c(N4CCOCC4C)n2)CCN(C2COC2)C3)cc1 (centres undefined) (library stock concentration (final ~1000-fold dilution): 10 mM) : what is it?
Ans: 0.705

Q: Give its NF-kB SEAP reporter activity value. Item: Brc1ccc(C2CN3CCSC3=N2)cc1.O=C(O)C(=O)O (centres undefined) (library stock concentration (final ~1000-fold dilution): 10 mM)
Ans: 0.888

Q: What does the record list as NF-kB SEAP reporter activity for CCCCNc1ccc(C(=O)OCCN(C)C)cc1.Cl (library stock concentration (final ~1000-fold dilution): 10 mM) ?
Ans: 0.759

Q: Item O=C(c1ccc(C(=O)N2CCC(N3CCCC3)CC2)c(Nc2ccccc2)c1)N1CCC(N2CCCC2)CC1 (library stock concentration (final ~1000-fold dilution): 10 mM) has what recorded NF-kB SEAP reporter activity?
Ans: 0.944

Q: Quick check: NF-kB SEAP reporter activity of COc1cc(N2CCN(C)CC2)ccc1Nc1ncc2c(n1)N(C)c1ccccc1C(=O)N2 (library stock concentration (final ~1000-fold dilution): 10 mM) ?
Ans: 0.514
